Measured IC50, listed per entry for reference.
system-tested: Dual specificity protein kinase CLK1 (Mus musculus)
Sequence (P22518 whole entry): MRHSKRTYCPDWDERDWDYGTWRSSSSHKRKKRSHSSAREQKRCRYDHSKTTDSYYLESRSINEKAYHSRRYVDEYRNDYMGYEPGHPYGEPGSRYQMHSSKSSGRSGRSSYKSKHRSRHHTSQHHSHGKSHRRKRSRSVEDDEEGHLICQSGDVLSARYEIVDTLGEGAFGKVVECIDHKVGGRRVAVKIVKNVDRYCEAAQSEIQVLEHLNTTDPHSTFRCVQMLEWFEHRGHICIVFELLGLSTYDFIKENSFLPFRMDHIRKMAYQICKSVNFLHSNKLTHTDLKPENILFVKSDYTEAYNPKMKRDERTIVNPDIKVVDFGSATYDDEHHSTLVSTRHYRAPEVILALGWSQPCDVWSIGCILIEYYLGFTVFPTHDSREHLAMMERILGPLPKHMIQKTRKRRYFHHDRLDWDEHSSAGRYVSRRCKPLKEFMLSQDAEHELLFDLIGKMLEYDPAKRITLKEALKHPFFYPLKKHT
procedure-summary: Inhibition of recombinant mouse CLK1 extracted from bacteria using GRSRSRSRSRSR as substrate incubated for 30 mins in presence of ATP by ADP-Glo kinase assay
Answer in nM, number only, no unit symbol.

Find IC50 (Dual specificity protein kinase CLK1 (Mus musculus)) for the entry c1cncc(-c2c[nH]c3cc4cnccc4cc23)c1
237

---

system-tested: Dual specificity tyrosine-phosphorylation-regulated kinase 1A (Rattus norvegicus) (UniProt Q63470)
procedure-summary: Inhibition of recombinant rat DYRK1A kinase domain (1 to 499 residues) extracted from bacteria using KKISGRLSPIMTEQ as substrate assessed as enzyme residual activity at 1 uM incubated for 30 mins in presence of ATP by ADP-Glo kinase assay relative to control
recorded-metric: Activity
Could you write the number and then its unit?

> print(dat)
                          compound  recorded.metric  observed.result
1  Cn1cc(-c2ccncc2)c2cc3ccncc3cc21         Activity              23%
2            c1cc2cc3c(cc2cn1)NCC3         Activity              68%

What does the data say about its Activity? Entry: c1cncc(-c2c[nH]c3cc4cnccc4cc23)c1
36%

Try the compound O=C1CCC(N2C(=O)c3cccc(NCCOCCOCCOCCn4cc(-c5ccncc5)c5cc6ccncc6cc54)c3C2=O)C(=O)N1 (stereo unspecified)
90%

Try the compound Cn1cc(-c2cccnc2)c2cc3ccncc3cc21
33%

---

Measured EC50, listed per entry for reference.
Tested on: U2OS
procedure-summary: Antiproliferative activity against human U2OS cells assessed as inhibition of cell viability incubated for 48 hrs by MTS assay
Type: functional, cell-based
Answer in µM, number only, no unit symbol.

> print(dat)
                       smiles.data  system.tested  measurement.units  observed.result
1  Cn1cc(-c2ccncc2)c2cc3ccncc3cc21           U2OS                 µM              3.2
2  Cn1cc(-c2cccnc2)c2cc3ccncc3cc21           U2OS                 µM             11.5

Find EC50 (U2OS) for the entry c1cncc(-c2c[nH]c3cc4cnccc4cc23)c1
26.7

---

system-tested: Dual specificity protein kinase CLK1 (Mus musculus)
procedure-summary: Inhibition of recombinant mouse CLK1 extracted from bacteria using GRSRSRSRSRSR as substrate assessed as enzyme residual activity at 10 uM incubated for 30 mins in presence of ATP by ADP-Glo kinase assay relative to control
The following ranges of Activity define the classes used here: lower bin = under 10%, middle bin = from 10% up to 80%, upper bin = 80% and over

> print(dat)
                                   compound                             system.tested       label
1           Cn1cc(-c2ccccn2)c2cc3ccncc3cc21  Dual specificity protein kinase CLK1 (Mus musculus)  middle bin
2  O=C1CCC(N2C(=O)c3cccc(NCCOCCOCCOCCn4ccc5cc6ccncc6cc54)c3C2=O)C(=O)N1 (stereo unspecified)  Dual specificity protein kinase CLK1 (Mus musculus)   upper bin
3           Cn1cc(-c2cccnc2)c2cc3ccncc3cc21  Dual specificity protein kinase CLK1 (Mus musculus)   lower bin
4  O=C1CCC(N2C(=O)c3cccc(NCCOCCOCCOCCn4cc(-c5ccncc5)c5cc6ccncc6cc54)c3C2=O)C(=O)N1 (stereo unspecified)  Dual specificity protein kinase CLK1 (Mus musculus)   upper bin
5  O=C1CCC(N2C(=O)c3cccc(NCCOCCOCCOCCNC(=O)c4c[nH]c5cc6cnccc6cc45)c3C2=O)C(=O)N1 (stereo unspecified)  Dual specificity protein kinase CLK1 (Mus musculus)   upper bin
6                  c1cc2c(ccc3cc[nH]c32)cn1  Dual specificity protein kinase CLK1 (Mus musculus)  middle bin
7         c1cncc(-c2c[nH]c3cc4cnccc4cc23)c1  Dual specificity protein kinase CLK1 (Mus musculus)   lower bin

Moving on to the next compound.
Looking at Cn1cc(-c2ccncc2)c2cc3ccncc3cc21 , which class would you pick?
middle bin

---

system-tested: Serine/threonine-protein kinase haspin (Homo sapiens) (UniProt Q8TF76)
Sequence (Q8TF76 whole entry, the tested form may be a part): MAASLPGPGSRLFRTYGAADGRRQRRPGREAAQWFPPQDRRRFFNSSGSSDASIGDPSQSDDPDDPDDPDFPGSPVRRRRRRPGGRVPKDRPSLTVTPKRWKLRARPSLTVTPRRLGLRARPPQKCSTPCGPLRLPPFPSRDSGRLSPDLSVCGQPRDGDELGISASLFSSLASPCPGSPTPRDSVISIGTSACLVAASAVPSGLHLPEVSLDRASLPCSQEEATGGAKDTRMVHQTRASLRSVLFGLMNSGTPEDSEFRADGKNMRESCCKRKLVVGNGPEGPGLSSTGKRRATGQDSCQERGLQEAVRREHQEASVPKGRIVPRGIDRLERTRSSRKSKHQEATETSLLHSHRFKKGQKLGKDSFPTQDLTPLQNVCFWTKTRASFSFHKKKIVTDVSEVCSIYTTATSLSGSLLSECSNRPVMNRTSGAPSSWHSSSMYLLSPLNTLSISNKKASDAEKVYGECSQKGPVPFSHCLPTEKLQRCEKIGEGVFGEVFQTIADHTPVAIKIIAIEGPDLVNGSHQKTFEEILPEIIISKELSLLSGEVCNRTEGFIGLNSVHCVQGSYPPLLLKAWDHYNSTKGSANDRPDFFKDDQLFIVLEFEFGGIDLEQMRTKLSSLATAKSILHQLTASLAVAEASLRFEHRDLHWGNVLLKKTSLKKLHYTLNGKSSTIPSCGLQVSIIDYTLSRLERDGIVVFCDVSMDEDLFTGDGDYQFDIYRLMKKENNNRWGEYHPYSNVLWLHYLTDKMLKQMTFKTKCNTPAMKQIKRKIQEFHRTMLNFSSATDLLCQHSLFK
procedure-summary: Inhibition of recombinant human haspin kinase domain (470 to 798 residues) extracted from bacteria using histone H3 (1 to 21) peptide as substrate assessed as residual activity at 10 uM incubated for 30 mins in presence of ATP by ADP-Glo kinase assay relative to control
Measured Activity, listed per entry for reference.

Sample records with Activity:
> print(dat)
                                   compound                             system.tested  observed.result
1  O=C1CCC(N2C(=O)c3cccc(NCCOCCOCCOCCn4cc(Cl)c5cc6ccncc6cc54)c3C2=O)C(=O)N1 (stereo not given)  Serine/threonine-protein kinase haspin (Homo sapiens) (UniProt Q8TF76)              90%
2  O=C1CCC(N2C(=O)c3cccc(NCCOCCOCCOCCn4cc(-c5ccncc5)c5cc6ccncc6cc54)c3C2=O)C(=O)N1 (stereo not given)  Serine/threonine-protein kinase haspin (Homo sapiens) (UniProt Q8TF76)              71%
3  O=C1CCC(N2C(=O)c3cccc(NCCOCCOCCOCCn4cc(Br)c5cc6ccncc6cc54)c3C2=O)C(=O)N1 (stereo not given)  Serine/threonine-protein kinase haspin (Homo sapiens) (UniProt Q8TF76)              86%
4           Cn1cc(-c2cccnc2)c2cc3ccncc3cc21  Serine/threonine-protein kinase haspin (Homo sapiens) (UniProt Q8TF76)               3%

Query compound follows.
What does the data say about its Activity? Entry: c1cc2c(ccc3cc[nH]c32)cn1
9%

---

system-tested: Dual specificity tyrosine-phosphorylation-regulated kinase 1A (Rattus norvegicus)
procedure-summary: Inhibition of recombinant rat DYRK1A kinase domain (1 to 499 residues) extracted from bacteria using KKISGRLSPIMTEQ as substrate assessed as enzyme residual activity at 10 uM incubated for 30 mins in presence of ATP by ADP-Glo kinase assay relative to control
recorded-metric: Activity (%)
Answer in %, number only, no unit symbol.

> print(dat)
                                   molecule  recorded.metric  observed.result
1         c1cncc(-c2c[nH]c3cc4cnccc4cc23)c1         Activity                6
2           Cn1cc(-c2ccncc2)c2cc3ccncc3cc21         Activity                9
3  O=C1CCC(N2C(=O)c3cccc(NCCOCCOCCOCCn4cc(-c5cccnc5)c5cc6ccncc6cc54)c3C2=O)C(=O)N1 (stereo unspecified)         Activity               74

What does the data say about its Activity? Entry: c1ccc(-c2c[nH]c3cc4cnccc4cc23)nc1
11

Try the molecule O=C1CCC(N2C(=O)c3cccc(NCCOCCOCCOCCn4cc(-c5ccncc5)c5cc6ccncc6cc54)c3C2=O)C(=O)N1 (stereo unspecified)
64

Try the molecule c1cc2cc3c(cc2cn1)NCC3
66

---

Measured Activity, listed per entry for reference.
system-tested: Casein kinase I isoform epsilon (Homo sapiens) (UniProt P49674)
Sequence (P49674 whole entry, looked up, canonical isoform): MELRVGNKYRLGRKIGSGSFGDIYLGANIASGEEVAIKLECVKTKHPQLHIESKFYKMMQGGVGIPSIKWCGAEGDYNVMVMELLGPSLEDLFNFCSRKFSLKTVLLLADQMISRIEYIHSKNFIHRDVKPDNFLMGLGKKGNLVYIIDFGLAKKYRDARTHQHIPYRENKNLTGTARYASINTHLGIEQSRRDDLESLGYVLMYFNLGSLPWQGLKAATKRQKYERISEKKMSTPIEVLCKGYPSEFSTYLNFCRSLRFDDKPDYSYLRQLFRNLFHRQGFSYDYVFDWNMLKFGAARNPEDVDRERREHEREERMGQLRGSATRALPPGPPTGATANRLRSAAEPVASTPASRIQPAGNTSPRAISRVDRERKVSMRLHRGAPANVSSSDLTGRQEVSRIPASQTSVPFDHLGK
procedure-summary: Inhibition of recombinant human CK1epsilon extracted from baculovirus infected Sf9 cells using RRKHAAIGSpAYSITA peptide as substrate assessed as enzyme residual activity at 10 uM incubated for 30 mins in presence of ATP by ADP-Glo kinase assay relative to control
Answer in %, number only, no unit symbol.

Sample records with Activity:
> print(dat)
                                   compound  recorded.metric  observed.result
1           Cn1cc(-c2ccncc2)c2cc3ccncc3cc21         Activity               42
2  O=C1CCC(N2C(=O)c3cccc(NCCOCCOCCOCCn4cc(-c5cccnc5)c5cc6ccncc6cc54)c3C2=O)C(=O)N1 (stereo unspecified)         Activity               91
3           Cn1cc(-c2cccnc2)c2cc3ccncc3cc21         Activity               65

What does the data say about its Activity? Entry: c1cc2c(ccc3cc[nH]c32)cn1
94

Try the compound c1ccc(-c2c[nH]c3cc4cnccc4cc23)nc1
90

Try the compound O=C1CCC(N2C(=O)c3cccc(NCCOCCOCCOCCn4cc(-c5ccncc5)c5cc6ccncc6cc54)c3C2=O)C(=O)N1 (stereo unspecified)
84

Try the compound c1cncc(-c2c[nH]c3cc4cnccc4cc23)c1
70

Try the compound Cn1cc(-c2ccccn2)c2cc3ccncc3cc21
89

Try the compound O=C1CCC(N2C(=O)c3cccc(NCCOCCOCCOCCn4ccc5cc6ccncc6cc54)c3C2=O)C(=O)N1 (stereo unspecified)
97

Try the compound O=C1CCC(N2C(=O)c3cccc(NCCOCCOCCOCCNC(=O)c4c[nH]c5cc6cnccc6cc45)c3C2=O)C(=O)N1 (stereo unspecified)
99

Try the compound c1cc2cc3c(cc2cn1)NCC3
96
